System: RPMI-8226 leukemia
Test: NCI tumour cell line growth inhibition, 48 h
REPORTED ENDPOINT: TGI (µM)
Give the number; µM is assumed, so skip it.

The reported value for CC(=O)O[C@@]12CO[C@@H]1C[C@H](O)[C@@]1(C)C(=O)[C@H](O)C3=C(C)[C@@H](OC(=O)[C@H](O)[C@@H](NC(=O)OC(C)(C)C)c4ccccc4)C[C@@](O)([C@@H](OC(=O)c4ccccc4)[C@H]21)C3(C)C in terms of TGI is 15.6

---
Given item Cc1nc2ccc(Cl)cc2c2c1CCS2 , the value recorded as its TGI is 71.4

* * *

The following compounds are listed with their measured TGI values.
System: RPMI-8226 leukemia
Test: NCI tumour cell line growth inhibition, 48 h
# value in µM; strip the unit string

// sample Cc1cc(NCCCNc2ccnc3cc(Cl)ccc23)nc(N2CCN(C)CC2)n1 , its TGI was 7.45

New cases:
Briefly, TGI measured for CSc1cccc(-n2c3nc(=O)n(C)c(=O)c-3nc3ccccc32)c1 : 26.2

Recorded TGI (compound CC(=O)N1N=C(c2ccc(Nc3nc(Nc4ccc(Cl)cc4)nc(Nc4ccc(Cl)cc4)n3)cc2)CC1c1ccc([N+](=O)[O-])cc1 (centres undefined) ): 42.4

Input N#Cc1c(NC(=S)Nc2ccc(Cl)cc2)sc2c1CCCC2 . Output TGI: 67.9

* * *

Test system: OVCAR-3 ovarian
Assay: NCI tumour cell line growth inhibition, 48 h
REPORTED ENDPOINT: TGI

The reported TGI of the compound CCOC(=O)[C@]12C(=C(c3ccccc3)O[C@H]3C=CCC[C@H]31)C(=O)C(=O)N2c1ccccc1 was > 100 µM

Noted for CC1=NOC2(C1)C(=O)Nc1ccccc12 (stereo unspecified) : its TGI reads > 100 µM

So for Cn1c(N)c(C(N)=O)[nH]c1=S , the logged TGI turned out to be > 100 µM

GET /value?item= C#CCn1ncc2c(SC)ncnc21 &field=TGI returns > 100 µM

Reported TGI ( Cc1ccccc1C1OC(=O)c2ccccc21 (stereo unspecified) ) = > 100 µM

Memo: CC(C)c1c(C(=O)Nc2ccccc2)c(-c2ccccc2)c(-c2ccc(F)cc2)n1CC[C@@H]1CC=CC(=O)O1 , reported TGI: 3.31 µM

* * *

Examples of molecules with documented TGI follow.
Test system: SK-OV-3 ovarian
Test: NCI tumour cell line growth inhibition, 48 h
Give the value in µM but do not write µM after it.

Tested system SK-OV-3 ovarian; TGI recorded for O=C(CC(=O)Nc1cccc(Cl)c1)NNCC(=O)Nc1nnc(-c2ccccc2)s1 was 77.3

Pending molecule:
Entry c1ccc(C2CC(c3cccc(Nc4ccncc4)c3)=NN2c2ccccc2)cc1 (stereo not given) ; assay system SK-OV-3 ovarian; TGI recorded at 5.49

* * *

Test system: COLO 205 colon
Test: NCI tumour cell line growth inhibition, 48 h
REPORTED ENDPOINT: TGI

# count of solved cases: 5
Value of TGI reported for the molecule CC(=O)Nc1ccc(/C=C/C(=O)c2ccccc2)cc1 is 28 µM

// Cc1noc2cccc(OCc3ccccc3)c12 : TGI value = > 100 µM

Lookup result for O=C1CC(c2cccc(O)c2)C2(C(=O)NC(=S)NC2=O)C(c2cccc(O)c2)C1 (stereo unspecified) ; measured TGI: > 100 µM

// TGI value for C/C(=N\NC(N)=S)c1cc(C)c(C)cc1C : > 100 µM

Entry under test: CC(=O)Oc1c(C)c2c(O)c3c1C1=C(OCOC1=C(C)C3=O)/C(C)=C\C(C)(O)C(O)C(C)C(O)C1C(=O)OC(C(C)C1O)C(C)(O)/C=C/C=C(C)C(=O)N2 (stereo unspecified) . Its TGI was > 100 µM

Others:
Entry O=c1[nH]cnc2c1sc1nc3ccccc3n12 , TGI reported as > 100 µM

The molecule Cc1nc(-c2ccccc2)c(Cc2ccccc2O)c(=O)[nH]1 showed TGI equal to > 100 µM

The recorded TGI for O=C1N(c2ccccc2)C2(c3ccccc3)CC3CCCC13S2 (stereo unspecified) is > 100 µM

Value of measured TGI for the entry O=c1cc(-c2ccc(O)cc2)n(C2CC2)c2ccccc12 : 15.1 µM

Reported TGI ( O=Cc1cc([N+](=O)[O-])no1 ) = > 100 µM

TGI for CCOC(=O)c1sc2ncn(Cc3cccc(Br)c3)c(=O)c2c1C is > 100 µM
